Cited source: patent US20140314784A1

system: human CXCR4 (human, UniProt P61073 1-352)
Sequence (P61073 whole entry): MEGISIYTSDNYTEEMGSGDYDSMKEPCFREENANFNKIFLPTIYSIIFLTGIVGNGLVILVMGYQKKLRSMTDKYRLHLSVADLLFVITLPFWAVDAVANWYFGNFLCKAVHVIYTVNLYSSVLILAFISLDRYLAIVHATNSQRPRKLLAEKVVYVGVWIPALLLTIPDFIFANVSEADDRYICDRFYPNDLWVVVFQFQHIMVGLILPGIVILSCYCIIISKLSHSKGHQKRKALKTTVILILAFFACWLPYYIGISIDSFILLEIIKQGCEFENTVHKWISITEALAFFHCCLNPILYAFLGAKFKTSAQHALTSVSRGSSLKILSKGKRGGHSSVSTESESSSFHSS
testMethodNotes: cell-based or functional assay
recordedEndpoint: Jurkat chemotaxis inhibition IC50 (µg/mL)
Please give a number only; it is taken to be in µg/mL.

For record 2A4 (antibody, V domains shown, Fully human monoclonal antibody from XenoMouse hybridoma; also called mAb 2A4; Mab2A4) VH: QVQLVESGGGVVQPGRSLRLSCAASGFTFSSYGMHWVRQAPGKGLEWVAVISYDGSNKYYADSVKGRFTISRDNSKNTLYLQMNSLRAEDTAVYYCTRGGLAARRNYYYSYGTDVWGQGTTVTVSS VL: DIQMTQSPSSLSASVGDRVTITCRASQDIRNDLGWYQQKPGKAPTRLIYAASSLQSGVPSRFSGSGSGTQFTLTISSLQPEDFATYYCLQHNSYPLTFGGGTKVQIK the listed Jurkat chemotaxis inhibition IC50 is 0.0574
